Data provenance is ChEMBL document CHEMBL3102784.

# Test system: Aspergillus fumigatus
# assay.notes: Antifungal activity against Aspergillus fumigatus 231 after 48 hrs by broth microdilution method
# Format: functional
# test.settings: Aspergillus fumigatus, 231, 48 h
measure.name: MIC50

Worked cases, answers included:
molecule | measure.name | value
CCOP(=O)(OCC)Oc1ccc(Cl)cc1C(=O)Nc1ccc(F)cc1 | MIC50 | > 500 µM
CCOP(=O)(OCC)Oc1ccc(Br)cc1C(=O)Nc1cccc(C(F)(F)F)c1 | MIC50 | > 500 µM
OC(Cn1cncn1)(Cn1cncn1)c1ccc(F)cc1F [FLUCONAZOLE] | MIC50 | > 50 µM
CCOP(=O)(OCC)Oc1cc(Cl)ccc1C(=O)Nc1cccc(F)c1 | MIC50 | > 500 µM

Next molecule, MIC50 to be filled in.
Quickly give me recorded MIC50 for CCOP(=O)(OCC)Oc1ccc(Br)cc1C(=O)Nc1ccc(Cl)cc1
> 500 µM
